# SYSTEM UNDER TEST: Tau binding to heparin (HS-GAG) (Homo sapiens, UniProt P10636)
# Sequence (P10636 with tags, fused parts or gaps): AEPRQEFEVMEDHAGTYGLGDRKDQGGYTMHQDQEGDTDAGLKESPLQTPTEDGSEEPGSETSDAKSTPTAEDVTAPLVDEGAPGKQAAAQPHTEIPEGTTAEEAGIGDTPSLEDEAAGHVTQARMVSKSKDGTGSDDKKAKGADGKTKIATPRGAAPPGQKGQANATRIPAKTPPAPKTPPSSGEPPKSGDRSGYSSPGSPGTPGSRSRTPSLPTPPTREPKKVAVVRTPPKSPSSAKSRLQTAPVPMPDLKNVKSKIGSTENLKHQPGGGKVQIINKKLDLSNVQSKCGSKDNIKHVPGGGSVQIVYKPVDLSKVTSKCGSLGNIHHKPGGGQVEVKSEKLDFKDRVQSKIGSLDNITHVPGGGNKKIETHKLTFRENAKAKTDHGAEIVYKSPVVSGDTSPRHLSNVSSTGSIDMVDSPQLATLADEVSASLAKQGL
# TEST DESCRIPTION: Inhibition of Tau binding to immobilized heparin-BSA (ELISA)
# Parameters: species or system porcine
# RECORDED CONDITIONS: Tau/Heparin Activity (IC-50), Tau, heparin-BSA
Where a name gives a salt, the structure may show the parent alone.
PROPERTY: pIC50
Lab note: report pIC50 as minus log10 of the concentration in molar units, number only.

{"columns": ["COMPOUND", "NUMERIC READOUT"],
 "data": [
  ["C/C(=N\\Nc1ncnc2cc(F)ccc12)c1ccc(-n2cc[n+](C)c2)nc1 [Compound 26]", 4.75],
  ["Cc1ncn(-c2ccc(/C=N/Nc3ccnc4cc(Cl)ccc34)cc2)c1C [Compound 2]", 5.35],
  ["C/C(=N\\Nc1ncnc2cc(Cl)ccc12)c1cccc(N2CCN(C)CC2)c1 [Compound 30]", 4.49],
  ["CCN1CCN(c2ccc(Nc3ccnc4cc5ccccc5cc34)cc2)CC1 [Compound 39]", 4.88],
  ["Fc1ccc2c(N/N=C/c3ccc(-n4ccnc4)cc3)ccnc2c1 [Compound 5]", 4.50]
]}

Recorded pIC50 of CN1CCN(Cc2ccc(/C=N/Nc3ccnc4cc(Cl)ccc34)cc2)CC1 [Compound 7] , please.
4.81

Would you mind doing Clc1ccc2c(N/N=C/c3ccc(-n4ccnc4)cc3)ccnc2c1 [Compound 38, dihydrochloride] as well?
5.53

Same again, this time with Fc1ccc2c(N/N=C/c3ccc(CN4CCOCC4)cc3)ccnc2c1 [Compound 6]
5.64

Same lookup for COc1cc2nccc(NN=Cc3ccc(-n4ccnc4)c(C)c3)c2cc1OC [Compound 11, hydrochloride] , please.
5.48

Try this compound next: Cc1ncn(-c2ccc(/C=N\Nc3ncnc4cc(Cl)ccc34)cn2)c1C [Compound 15, hydrochloride]
4.17

Input CC(=NNc1ccnc2cc(Cl)ccc12)c1ccc(-n2cc[n+](C)c2)nc1 [Compound 23]
4.59

Next: COc1cc(Nc2cncc3cc(Cl)ccc23)cnc1-n1cnc(C)c1C [Compound 33]
4.61

====

# SYSTEM UNDER TEST: Amyloid-beta(1-40) binding to heparin (HS-GAG) (Homo sapiens, UniProt P05067)
# Sequence (P05067 672-711): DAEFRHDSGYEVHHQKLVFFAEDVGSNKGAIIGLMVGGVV
# TEST DESCRIPTION: Inhibition of Amyloid-beta(1-40) binding to immobilized heparin-BSA (ELISA)
# Design: species or system porcine
# RECORDED CONDITIONS: Abeta40/Heparin Activity (IC-50), Abeta(1-40), co-incubation on heparin-BSA plates
# Protocol: Porcine intestinal mucosa heparin conjugated to Bovine Serum Albumin (Heparin-BSA) was prepared as described (Najjam, S. et al. 1997, Cytokine 12, 1013-1022). […] Bound GBAP was detected by a monoclonal antibody specific for that GBAP, followed by incubation with secondary antibody conjugated to horseradish peroxidase (HRP). […] The Optical Density of the samples was measured at 450 nm using an ELISA plate reader (BioTek Synergy H1). […] IC-50s were calculated using GraphPad Prism software. […]
Structures can show the parent of a compound that is named as a salt.
Reported pIC50 values for a set of compounds
# pIC50 is unitless: minus log10 of the molar concentration; print number only

Solved entries (count: 6):
{"columns": ["COMPOUND", "NUMERIC READOUT"],
 "data": [
  ["Clc1ccc2c(N/N=C/c3ccc(-n4ccnc4)nc3)ccnc2c1 [Compound 14, hydrochloride]", 5.11],
  ["COc1ccc2c(NN=Cc3ccc(-n4ccnc4)c(C)c3)ccnc2c1", 4.75],
  ["CC(=NNc1ccnc2cc(Cl)ccc12)c1ccc(-n2cnc(C)c2C)nc1", 4.79],
  ["Clc1ccc2c(N/N=C/c3ccc(-n4cccn4)cc3)ccnc2c1", 5.56],
  ["CC(=NNc1ccnc2cc(Cl)ccc12)c1ccc(-n2ccnc2)cc1 [Compound 36, phosphate]", 4.86],
  ["Clc1ccc2c(N/N=C/c3ccc(-n4ccnc4)cc3)ccnc2c1 [Compound 38, dihydrochloride]", 5.89]
]}

Fill in: pIC50 of C/C(=N\Nc1ncnc2cc(Cl)ccc12)c1ccc(-n2cc(C)nc2C)nc1 [Compound 27, hydrochloride] is ___
5.66

Then what about the compound `O=S1(=O)CCN(Cc2ccc(/C=N/Nc3ccnc4cc(F)ccc34)cc2)CC1` ?
4.45

Check C/C(=N\Nc1ncnc2cc(Cl)ccc12)c1ccc(-n2cnc(C)c2C)nc1 [Compound 16, phosphate] too.
5.36

Thanks! And `Cc1cn(-c2ccc(Nc3cncc4cc(Cl)ccc34)cn2)c(C)n1` ?
4.34

Another: `CCN1CCN(c2ccc(Nc3ccnc4cc5ccccc5cc34)cc2)CC1`
4.68

What do you get for `C/C(=N\Nc1ncnc2ccccc12)c1ccc(-n2cc(C)nc2C)nc1` ?
4.99

Another compound: `Cc1ncn(-c2ccc(Nc3ncnc4cc(Cl)ccc34)cn2)c1C`
5.77

Moving on to `CCN(CC)Cc1cccc(Nc2ccnc3cc(Cl)ccc23)c1`
4.91

Now try `C[N+](C)(C)Cc1ccc(/C=N\Nc2ccnc3ccc(Cl)cc23)cc1` .
4.29

Quick one: `C/C(=N\Nc1ncnc2cc(F)ccc12)c1ccc(-n2cc[n+](C)c2)nc1`
4.99

Proceed to `Clc1ccc2c(Nc3ccc(-n4cncn4)nc3)ncnc2c1`
4.46

How about `COc1cc(Nc2nncc3cc(Cl)ccc23)cnc1-n1cnc(C)c1C` ?
4.63

What do we get for Cc1ncn(-c2ccc(/C=N\Nc3ncnc4cc(Cl)ccc34)cn2)c1C [Compound 15, hydrochloride] ?
4.64

Try the compound `Fc1ccc2c(N/N=C/c3ccc(-n4ccnc4)cc3)ccnc2c1`
5.48

# repeat for `Clc1ccc2c(Nc3ccc(-n4cncn4)nc3)ccnc2c1`
4.72

`CN1CCN(Cc2ccc(/C=N/Nc3ccnc4cc(Cl)ccc34)cc2)CC1` , same question.
4.60

Quick one: `Cc1ncn(-c2ccc(/C=N/Nc3ccnc4cc(Cl)ccc34)cc2)c1C`
4.64

Input `C/C(=N\Nc1ncnc2cc(Cl)ccc12)c1ccc(-n2cc[n+](C)c2)nc1`
4.55
